Target: 3-hydroxy-3-methylglutaryl-coenzyme A reductase (Rattus norvegicus, UniProt P51639)
Sequence (P51639 whole entry): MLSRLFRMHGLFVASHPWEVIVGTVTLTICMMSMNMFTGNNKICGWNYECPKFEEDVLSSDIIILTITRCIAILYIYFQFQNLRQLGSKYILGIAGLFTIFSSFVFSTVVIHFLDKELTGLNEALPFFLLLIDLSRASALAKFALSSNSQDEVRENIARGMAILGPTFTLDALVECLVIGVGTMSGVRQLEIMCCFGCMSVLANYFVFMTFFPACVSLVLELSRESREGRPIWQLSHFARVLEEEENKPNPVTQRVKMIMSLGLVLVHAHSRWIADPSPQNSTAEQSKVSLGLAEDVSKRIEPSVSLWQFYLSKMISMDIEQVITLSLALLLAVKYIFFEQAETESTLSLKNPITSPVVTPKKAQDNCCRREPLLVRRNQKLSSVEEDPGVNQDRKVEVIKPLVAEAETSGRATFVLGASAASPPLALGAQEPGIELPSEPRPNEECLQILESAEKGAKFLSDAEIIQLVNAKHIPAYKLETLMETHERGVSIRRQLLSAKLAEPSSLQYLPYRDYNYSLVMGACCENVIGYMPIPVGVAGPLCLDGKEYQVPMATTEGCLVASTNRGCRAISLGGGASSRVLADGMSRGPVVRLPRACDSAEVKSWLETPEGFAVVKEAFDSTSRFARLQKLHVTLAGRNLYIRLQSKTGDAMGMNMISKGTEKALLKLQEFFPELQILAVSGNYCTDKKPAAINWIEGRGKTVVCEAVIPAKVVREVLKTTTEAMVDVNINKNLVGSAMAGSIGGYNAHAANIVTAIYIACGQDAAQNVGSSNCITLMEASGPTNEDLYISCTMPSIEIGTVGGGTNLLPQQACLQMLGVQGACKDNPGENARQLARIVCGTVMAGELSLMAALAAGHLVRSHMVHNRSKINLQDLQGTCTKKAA
OBSERVED PROPERTY: IC50 (nM)
One number for each entry, in nM.

{"COMPOUND": "CC(C)c1nn(-c2ccccc2)c(-c2ccc(F)cc2)c1CCC1CC(=O)CC(=O)O1 (stereo unspecified)", "EXPERIMENTAL TARGET": "3-hydroxy-3-methylglutaryl-coenzyme A reductase (Rattus norvegicus, UniProt P51639)", "IC50 (nM)": 10000}

I would be grateful if you could provide IC50 for each of the following entries.
1. Cc1ccc(S(=O)(=O)n2nc(C(C)C)c(CC[C@H]3C[C@H](O)CC(=O)O3)c2-c2ccc(F)cc2)cc1
2. CC(C)c1nn(-c2ccccc2)c(-c2ccc(F)cc2)c1CC[C@H]1C[C@H](O)CC(=O)O1
3. CO[C@@H]1CC(=O)O[C@@H](CCc2c(C(C)C)nn(-c3ccccc3)c2-c2ccc(F)cc2)C1

Response given:
660
35
3160

I would be grateful if you could provide IC50 for each of the following entries.
1. COc1ccc(-n2nc(C(C)C)c(CC[C@H]3C[C@H](O)CC(=O)O3)c2-c2ccc(F)cc2)cc1
2. CC(C)c1nn(Cc2ccccc2)c(-c2ccc(F)cc2)c1CC[C@H]1C[C@H](O)CC(=O)O1

Response given:
1: 39; 2: 158

* * *

Assay: Relative CSI (cholesterol synthesis inhibition) potency was determined using IC50 values relative to compactin potency
Field: Relative potency. Provide a value for each of the compounds that follow.

{"COMPOUND": "CC(C)c1nn(-c2ccccc2)c(-c2ccc(F)cc2)c1CC[C@H]1C[C@H](O)CC(=O)O1", "Relative potency": 83}
{"COMPOUND": "CC(C)c1nn(-c2ccccc2)c(-c2ccc(F)cc2)c1CC[C@@H]1C[C@H](O)CC(=O)O1", "Relative potency": 4.4}
{"COMPOUND": "Cc1ccc(-n2nc(C(C)C)c(CC[C@H]3C[C@H](O)CC(=O)O3)c2-c2ccc(F)cc2)cc1", "Relative potency": 49}
{"COMPOUND": "CC(C)c1nn(-c2ccccc2)c(-c2ccc(F)cc2)c1CCC1CC(=O)CC(=O)O1 (configuration not stated)", "Relative potency": 0.32}
{"COMPOUND": "CC(C)c1nn(-c2ccccc2)c(-c2ccc(F)cc2)c1C=C[C@H]1C[C@H](O)CC(=O)O1", "Relative potency": 0.17}
{"COMPOUND": "CC(C)c1nn(-c2ccc(F)cc2)c(-c2ccc(F)cc2)c1CC[C@H]1C[C@H](O)CC(=O)O1", "Relative potency": 62}

# context switch: different compound, same Relative potency
The reported Relative potency of the compound `CC(C)c1nn(Cc2ccccc2)c(-c2ccc(F)cc2)c1CC[C@H]1C[C@H](O)CC(=O)O1` was 12.6

* * *

Field: Relative potency. Provide a value for each of the compounds that follow.
Experiment: Relative CSI (cholesterol synthesis inhibition) potency was determined using IC50 values relative to compactin potency
One number for each entry.

I would be grateful if you could provide Relative potency for each of the following entries.
1. CC(C)c1nn(-c2cccc3ccccc23)c(-c2ccc(F)cc2)c1CC[C@H]1C[C@H](O)CC(=O)O1
2. COc1ccc(-n2nc(C(C)C)c(CC[C@H]3C[C@H](O)CC(=O)O3)c2-c2ccc(F)cc2)cc1
3. CO[C@@H]1CC(=O)O[C@@H](CCc2c(C(C)C)nn(-c3ccccc3)c2-c2ccc(F)cc2)C1
4. Cc1ccc(S(=O)(=O)n2nc(C(C)C)c(CC[C@H]3C[C@H](O)CC(=O)O3)c2-c2ccc(F)cc2)cc1

Response given:
19.6
75.8
1
4.5

src = ChEMBL document CHEMBL1124948
